I'd appreciate it if you could supply % Primer Extension values for the items below.
# Assay System: UniProtKB O14746
# Sequence (O14746 whole entry): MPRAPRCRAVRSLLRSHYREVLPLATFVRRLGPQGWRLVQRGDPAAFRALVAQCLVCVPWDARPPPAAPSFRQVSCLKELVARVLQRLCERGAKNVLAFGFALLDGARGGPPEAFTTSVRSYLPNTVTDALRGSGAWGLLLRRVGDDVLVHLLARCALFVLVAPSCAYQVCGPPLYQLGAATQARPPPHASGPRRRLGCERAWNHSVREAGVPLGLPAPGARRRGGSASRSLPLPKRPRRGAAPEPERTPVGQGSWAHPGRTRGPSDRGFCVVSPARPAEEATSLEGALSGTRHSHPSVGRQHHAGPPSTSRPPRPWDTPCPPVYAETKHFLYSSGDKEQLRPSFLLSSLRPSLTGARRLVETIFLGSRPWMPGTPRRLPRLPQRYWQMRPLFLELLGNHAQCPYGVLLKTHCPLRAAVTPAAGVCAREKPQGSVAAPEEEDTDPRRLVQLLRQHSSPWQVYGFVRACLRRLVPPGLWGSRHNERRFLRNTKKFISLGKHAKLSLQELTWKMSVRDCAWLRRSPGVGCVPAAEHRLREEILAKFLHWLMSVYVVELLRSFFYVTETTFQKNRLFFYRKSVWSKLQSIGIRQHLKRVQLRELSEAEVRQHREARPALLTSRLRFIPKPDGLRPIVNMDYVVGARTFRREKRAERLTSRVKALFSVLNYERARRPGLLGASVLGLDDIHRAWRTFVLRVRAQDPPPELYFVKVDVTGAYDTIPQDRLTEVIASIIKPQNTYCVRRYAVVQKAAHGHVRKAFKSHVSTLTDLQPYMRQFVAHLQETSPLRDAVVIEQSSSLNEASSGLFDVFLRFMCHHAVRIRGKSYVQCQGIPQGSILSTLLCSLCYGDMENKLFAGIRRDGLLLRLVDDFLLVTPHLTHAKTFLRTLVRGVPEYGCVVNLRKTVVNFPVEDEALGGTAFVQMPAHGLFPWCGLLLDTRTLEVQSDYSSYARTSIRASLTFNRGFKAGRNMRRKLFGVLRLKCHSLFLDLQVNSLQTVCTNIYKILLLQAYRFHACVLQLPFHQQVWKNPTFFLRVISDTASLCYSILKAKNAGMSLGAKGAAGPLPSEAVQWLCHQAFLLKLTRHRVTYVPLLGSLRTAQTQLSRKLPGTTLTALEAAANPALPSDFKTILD
# Assay Procedure: Telomerase extension of 32P-end labeled primers with a single dNTP (percent primer extension)
# Format: biochemical
# Design: made in house; anti-FLAG immunopurification, eluted with 3xFLAG peptide
# Particulars: Primer 1; 50µM dNTP
# Procedure: A chain terminating mechanism of inhibition requires that the enzyme adds the modified dNTP to a growing chain, which then blocks further synthesis. […] To test whether telomerase can incorporate other modified dNTPs, and whether the incorporation is chain terminating and/or mutagenic, we conducted direct extension assays in which we radiolabeled the primer and added increasing concentrations (5, 50, and 500 μM) of a single dNTP (Supplementary Figs. 3, 5, 6, and 7). […]
Give bare numbers, in %.

Below, each entry is followed by its recorded % Primer Extension result.
Compound: Nc1nc2c([nH]c(=O)n2C2CC(O)C(COP(=O)(O)OP(=O)(O)OP(=O)(O)O)O2)c(=O)[nH]1 (stereo not shown)
Unit Annotation: %
% Primer Extension: 7.44

Compound: Cc1cn([C@H]2C[C@H](N=[N+]=[N-])[C@@H](CO)O2)c(=O)[nH]c1=O
Unit Annotation: %
% Primer Extension: 12.17

Compound: Nc1ncnc2c1ncn2C1CC(O)C(COP(=O)(O)OP(=O)(O)OP(=O)(O)O)O1 (stereo not shown)
Unit Annotation: %
% Primer Extension: 1.84

Here is another compound to look at.
Endpoint output: % Primer Extension of Nc1nc(O)nc2c1ncn2C1CC(O)C(COP(=O)(O)OP(=O)(O)OP(=O)(O)O)O1 (stereo not shown) . Value?
1.98
